Data provenance is ChEMBL document CHEMBL5154917.

Assay: Oral bioavailability in Sprague-Dawley rat
Type: ADME, organism-based
Details: in vivo
measured-endpoint: bioavailability (%)
Record the value in %, omitting the unit from your answer.

Query block: Fill in: bioavailability of `COc1ccc(-c2ccc3[nH]c(=O)c4nnn(-c5ccc(N6CCNCC6)c(C(F)(F)F)c5)c4c3c2)cn1` is ___
Result block: 3.06

* * *

Experiment: Cmax in Sprague-Dawley rat administered orally
Assay type: ADME
Parameters: route po
Settings: in vivo, po
measured-endpoint: Cmax (ng/mL)
Write the value in ng/mL as a bare number.

Query block: What measured Cmax goes with `COc1ccc(-c2ccc3[nH]c(=O)c4nnn(-c5ccc(N6CCNCC6)c(C(F)(F)F)c5)c4c3c2)cn1` ?
Result block: 13
